target: STAT3 (aa 127-722) (Homo sapiens, UniProt P40763); construct: STAT3 (aa 127-722) at a concentration of 200 nM; test: SPR assay of STAT3 binding to immobilized EGFR pY1068 phosphododecapeptide; conditions: pEGFRp-STAT3 binding (SPR) at pH 8, compound 10 μm
Sequence (P40763 127-722 isoform P40763-3 limits assumed, species assumed): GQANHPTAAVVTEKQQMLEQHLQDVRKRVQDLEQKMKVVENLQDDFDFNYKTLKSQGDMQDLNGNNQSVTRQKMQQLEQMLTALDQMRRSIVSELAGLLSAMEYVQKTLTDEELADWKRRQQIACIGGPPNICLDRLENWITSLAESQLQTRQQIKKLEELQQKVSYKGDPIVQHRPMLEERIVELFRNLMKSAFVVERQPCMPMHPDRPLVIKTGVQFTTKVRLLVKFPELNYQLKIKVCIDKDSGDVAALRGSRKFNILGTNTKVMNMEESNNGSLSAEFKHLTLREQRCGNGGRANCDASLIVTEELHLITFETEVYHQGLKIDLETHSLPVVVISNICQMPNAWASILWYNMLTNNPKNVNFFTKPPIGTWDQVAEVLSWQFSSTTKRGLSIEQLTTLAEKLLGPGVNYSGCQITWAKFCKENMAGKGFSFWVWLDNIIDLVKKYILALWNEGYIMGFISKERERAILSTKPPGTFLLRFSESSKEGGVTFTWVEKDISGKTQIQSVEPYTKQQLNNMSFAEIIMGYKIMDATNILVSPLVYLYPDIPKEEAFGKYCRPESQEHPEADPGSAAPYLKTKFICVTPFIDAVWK
PROPERTY: % of max binding at 10 μm (%)

Study these solved cases before continuing.
molecule=COc1ccc(Br)cc1/C=C/C(=O)c1ccc(NC(C)=O)cc1 observed_measurement=69.6
molecule=COc1ccc(CCNC(=O)c2cccc(C(=O)NCCc3ccc(OC)c(OC)c3)c2)cc1OC observed_measurement=64.1
molecule=O=C(O)c1ccc(-c2ccc(/C=C3/NC(=O)N(Cc4ccccc4F)C3=O)o2)cc1Cl observed_measurement=109.3
molecule="CCn1c(CNc2ccc(Cl)cc2)nnc1SC(C)C(=O)Nc1ccc(C(C)=O)cc1 (stereo not drawn)" observed_measurement=132.2
molecule="CC(=O)c1ccc(NC(=O)C2C3CC/C=C\\CCC32)cc1 (stereo not drawn)" observed_measurement=73.7

I. COc1ccc(/C=C/C(=O)c2cc(Br)ccc(=O)c2O)cc1
II. COC(=O)c1ccc(N2C(=O)CC(SC(=NCCc3ccc(S(N)(=O)=O)cc3)Nc3ccccc3)C2=O)cc1 (stereo not drawn)
query: # compare % of max binding at 10 μm for I vs II ; return the one with the smaller value Respond using the label that marks the chosen record.
result: I

1. Cc1cc(NS(=O)(=O)c2ccc(NC(=O)COc3ccc(C(C)(C)c4ccccc4)cc3)cc2)nc(C)n1
2. CC(=O)Nc1nc(C)c(-c2csc(Nc3ccccc3)n2)s1
query: Between 1 and 2 , whose measured % of max binding at 10 μm reads higher? Respond using the label that marks the chosen record.
result: 2

1. CS(=O)(=O)c1ccc2nc(NC(=O)c3cccc(Cn4cc(Cl)cn4)c3)sc2c1
2. NC(=O)CCN1CCN(CCOC2Cc3cc(Cl)ccc3Sc3ccccc32)CC1 (stereo not drawn)
query: # compare % of max binding at 10 μm for 1 vs 2 ; return the one with the smaller value Respond using the label that marks the chosen record.
result: 1

I. CC1(C)CC(=O)c2sc(NC(=O)CSc3nnc(SCC(=O)Nc4nc5c(s4)C(=O)CC(C)(C)C5)s3)nc2C1
II. CCOc1ccc(N(C(C)C(=O)Nc2cccc(Cl)c2C)S(C)(=O)=O)cc1 (stereo not drawn)
query: # compare % of max binding at 10 μm for I vs II ; return the one with the smaller value Respond using the label that marks the chosen record.
result: I
(I: 76.0%, II: 120.1%)

###

system: MDA-MB-468 cells; experiment: Anchorage-independent and dependent cell growth (MTT), MDA-MB-468; type: cell-based; conditions: anchorage dependent, cell-culture treated plates, 48 hrs, NA = No Activity, read-out: Growth AD IC50 468
pIC50: −log10 of the molar value.
PROPERTY: pIC50

compound="Cc1cc(NS(=O)(=O)c2ccc(NC(=O)COc3ccc(C(C)(C)c4ccccc4)cc3)cc2)nc(C)n1 [SPEC-106]" assayed_system="MDA-MB-468 cells" property=pIC50 observed_measurement=4.35

a. COc1cc(/C=C2/SC(=O)NC2=O)ccc1OCc1ccc(Cl)cc1Cl [SPEC-98]
b. COc1ccc(Br)cc1/C=C/C(=O)c1ccc(NC(C)=O)cc1 [SPEC-29]
query: # compare pIC50 for a vs b ; return the one with the smaller value Respond using the label that marks the chosen record.
result: a
(a: 4.49, b: 5.62)

Value source: patent US20220168322A1
